Data origin: paper PMC9826068

- assay-comment: Distribution coefficient 1‐octanol / aqueous phosphate buffer
- Assay type: physicochemical
- condition-details: pH 7.4
endpoint-name: logD

{"columns": ["compound", "measured-value"],
 "data": [
  ["c1cc(CNCc2cc3ccccc3o2)cc(CNCc2cc3ccccc3o2)c1 [compound 29]", 4.6]
]}
